tested on: 90% gray hair; assay: ELISA hair-binding activity of biotinylated peptides on hair bundles; design: species or system human; details: 20 μM biotinylated peptide in TBST and 1 mg/mL BSA, 1 hour at room temperature, 90% gray hair bundles, streptavidin-HRP detection; mean of at least three replicates
Recorded Hair A405 nm by entry
Endpoint: Hair A405 nm

                                  substance  measured_number
0  EGASVASASDSVDSSYYSR-GSSGK (biotin) [Aff15017]            0.184
1  SSEGASVASASDSVDSSYYSRKSSQKNPHHPKPPKKPTAR-GSSGK (biotin) [Aff15023]             0.66
2  SRKSSQKNPHHPKPPKKPTAR-GSSGK (biotin) [Aff15014]            0.871
